IC50: recorded values
# system-name: K-Ras G12C (Homo sapiens (Human), UniProt P01116+P62937, G12C)
# Sequence (P01116-2 other isoform, or with tags, fused parts or gaps G12C): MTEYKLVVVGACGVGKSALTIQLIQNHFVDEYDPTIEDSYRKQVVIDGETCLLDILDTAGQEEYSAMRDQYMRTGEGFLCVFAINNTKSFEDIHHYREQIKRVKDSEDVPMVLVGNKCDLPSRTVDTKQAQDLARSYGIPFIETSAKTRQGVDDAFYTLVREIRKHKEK
# Sequence (P62937 whole entry): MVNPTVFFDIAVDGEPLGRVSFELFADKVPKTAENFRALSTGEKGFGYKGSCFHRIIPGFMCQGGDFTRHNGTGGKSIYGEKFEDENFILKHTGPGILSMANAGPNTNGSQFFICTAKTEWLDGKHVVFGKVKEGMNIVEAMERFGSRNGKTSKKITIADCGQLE
# method-notes: Ras-Raf (BRAF RBD) disruption / FRET / MOA assay, KRAS G12C
# Format: biochemical
# applied-conditions: KRAS G12C; Ras-Raf disruption/FRET/MOA assay; read-out: IC50* KRAS G12C FRET data
observable: IC50

1) CO[C@@H](C)c1ncccc1-c1c2c3cc(ccc3n1CC(F)(F)F)-c1nc(ns1)C[C@H](NC(=O)[C@@H](COC1CN(C(=O)C#CC(C)(C)N(C)C)C1)C(C)C)C(=O)N1CCC[C@H](N1)C(=O)OCC(C)(C)C2 (atropisomer, axis not shown)    10 to 100 nM
2) CCn1c(-c2cccnc2[C@H](C)OC)c2c3cc(ccc31)-c1cccc(n1)C[C@H](NC(=O)[C@H](C(C)C)N(C)C(=O)N1CCC13CN(C(=O)C#CC(C)(C)N(C)C)C3)C(=O)N1CCC[C@H](N1)C(=O)OCC(C)(C)C2 (atropisomer, axis not shown)    100 to 1000 nM
3) C=CC(=O)N1C[C@@H](C(=O)N(C)[C@@H](C(=O)N[C@H]2Cc3cc(O)cc(c3)-c3ccc4c(c3)c(c(-c3cccnc3COC)n4CC)CC(C)(C)COC(=O)[C@@H]3CCCN(N3)C2=O)C(C)C)C[C@H]1C    100 to 1000 nM
4) C=CC(=O)N1CC[C@H](C(=O)N(C)[C@H](C(=O)N[C@H]2Cc3cc(O)cc(c3)-c3ccc4c(c3)c(c(-c3cccnc3CNC)n4CC)CC(C)(C)COC(=O)[C@@H]3CCCN(N3)C2=O)C(C)C)C1    100 to 1000 nM
5) CCn1c(-c2cncnc2)c2c3cc(ccc31)-c1csc(n1)C[C@H](NC(=O)[C@H](C(C)C)N(C)C(=O)[C@H]1CCN(C(=O)C#CCN3CCOCC3)C1)C(=O)N1CCC[C@H](N1)C(=O)OCC(C)(C)C2    100 to 1000 nM
6) C=CC(=O)N1CC[C@H](C(=O)N(C)[C@H](C(=O)N[C@H]2Cc3cccc(c3)-c3ccc4c(c3)c(c(-c3cccnc3[C@H](C)OC)n4CC3COC3)CC(C)(C)COC(=O)[C@@H]3CCCN(N3)C2=O)C(C)C)C1 (atropisomer, axis not shown)    100 to 1000 nM
7) C=CC(=O)N1CC[C@H](C(=O)N(C)[C@H](C(=O)N[C@H]2Cc3cccc(c3)-c3ccc4c(c3)c(c(-c3cc(C5CCN(C)CC5)cnc3[C@H](C)OC)n4CC)CC(C)(C)COC(=O)[C@@H]3CCCN(N3)C2=O)C(C)C)C1 (atropisomer, axis not shown) [Example A515]    10 to 100 nM
8) CCn1c(-c2cccnc2COC)c2c3cc(ccc31)-c1cc(O)cc(c1)C[C@H](NC(=O)[C@H](C(C)C)N(C)C(=O)[C@H]1CCC(C(=O)/C=C\CN(C)C)C1)C(=O)N1CCC[C@H](N1)C(=O)OCC(C)(C)C2 (some centres unmarked) [Example A164]    10 to 100 nM

* * *

# system-name: K-Ras G13C (Homo sapiens (Human), UniProt P01116+P62937, G13C)
# Sequence (P01116-2 other isoform, or with tags, fused parts or gaps G13C, one chain of several): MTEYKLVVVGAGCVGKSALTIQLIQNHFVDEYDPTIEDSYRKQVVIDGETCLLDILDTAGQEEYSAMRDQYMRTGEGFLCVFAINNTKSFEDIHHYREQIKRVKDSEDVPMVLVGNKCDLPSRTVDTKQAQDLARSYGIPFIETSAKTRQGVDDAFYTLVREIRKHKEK
# method-notes: Ras-Raf (BRAF RBD) disruption / FRET / MOA assay, KRAS G13C
# Format: biochemical
# applied-conditions: KRAS G13C; Ras-Raf disruption/FRET/MOA assay; read-out: IC50* KRAS G13C FRET data
observable: IC50

1) CCn1c(-c2cccnc2[C@H](C)OC)c2c3cc(ccc31)-c1nsc(n1)C[C@H](NC(=O)[C@H](C(C)C)N(C)C(=O)[C@H]1CCN(C(=O)C#CCN3CCOCC3)C1)C(=O)N1CCC[C@H](N1)C(=O)OCC(C)(C)C2 (atropisomer, axis not shown)    1 to 10 µM
2) C=CC(=O)N1CCOC2(C1)CN(C(=O)N(C)[C@H](C(=O)N[C@H]1Cc3nc(cs3)-c3ccc4c(c3)c(c(-c3cccnc3[C@H](C)OC)n4CC(F)(F)F)CC(C)(C)COC(=O)[C@@H]3CCCN(N3)C1=O)C(C)C)C2 (atropisomer, axis not shown)    0.01 to 0.1 µM
3) C=CC(=O)N1CC[C@H](C(=O)N(C)[C@H](C(=O)N[C@H]2Cc3cccc(n3)-c3ccc4c(c3)c(c(-c3cccnc3[C@H](C)OC)n4CC)CC(C)(C)COC(=O)[C@@H]3CCCN(N3)C2=O)C(C)C)C1 (atropisomer, axis not shown)    1 to 10 µM
4) C=CC(=O)N1CCN(C(=O)N(C)[C@H](C(=O)N[C@H]2Cc3nc(cs3)-c3ccc4c(c3)c(c(-c3cccnc3[C@H](C)OC)n4CC)CC(C)(C)COC(=O)[C@@H]3CCCN(N3)C2=O)C(C)C)CC1 (atropisomer, axis not shown)    0.01 to 0.1 µM
5) CCn1c(-c2cccnc2[C@H](C)OC)c2c3cc(ccc31)N1CCO[C@@H](C[C@H](NC(=O)[C@H](C(C)C)N(C)C(=O)C3(F)CCN(C(=O)C#CC(C)(C)N(C)C)CC3)C(=O)N3CCC[C@H](N3)C(=O)OCC(C)(C)C2)C1 (atropisomer, axis not shown)    0.1 to 1 µM
6) C=CC(=O)N1CCN(C(=O)N(C)[C@H](C(=O)N[C@H]2Cc3nc(cs3)-c3ccc4c(c3)c(c(-c3cccnc3[C@H](C)OC)n4CC)CC(C)(C)COC(=O)[C@@H]3CCCN(N3)C2=O)C(C)C)C[C@@H]1C (atropisomer, axis not shown)    0.01 to 0.1 µM
7) C=CC(=O)N1C2CC1CN(C(=O)N(C)[C@H](C(=O)N[C@H]1Cc3nc(cs3)-c3ccc4c(c3)c(c(-c3cccnc3[C@H](C)OC)n4CC)CC(C)(C)COC(=O)[C@@H]3CCCN(N3)C1=O)C(C)C)C2    0.1 to 1 µM
8) C=CC(=O)N1CCC(C(=O)N(C)[C@H](C(=O)N[C@H]2Cc3cc(O)cc(c3)-c3ccc4c(c3)c(c(-c3cccnc3[C@H](C)OC)n4CC)CC(C)(C)COC(=O)[C@@H]3CCCN(N3)C2=O)C(C)C)CC1 (atropisomer, axis not shown)    0.01 to 0.1 µM
9) CCn1c(-c2cccnc2[C@H](C)OC)c2c3cc(ccc31)-c1cc(O)cc(c1)C[C@H](NC(=O)[C@H](C(C)C)N(C)C(=O)[C@H]1CCN(C(=O)/C=C/C(F)(F)F)C1)C(=O)N1CCC[C@H](N1)C(=O)OCC(C)(C)C2    0.01 to 0.1 µM
10) CCn1c(-c2cccnc2[C@H](C)OC)c2c3cc(ccc31)-c1cnc(o1)C[C@H](NC(=O)[C@H](C(C)C)N(C)C(=O)[C@H]1CCN(C(=O)C#CC(C)(C)N(C)C)C1)C(=O)N1CCC[C@H](N1)C(=O)OCC(C)(C)C2 (atropisomer, axis not shown)    0.1 to 1 µM
11) CCn1c(-c2cccnc2[C@H](C)OC)c2c3cc(ccc31)C1=CCCN(C1)C[C@H](NC(=O)[C@@H](COC1CN(C(=O)C#CC(C)(C)N(C)C)C1)C(C)C)C(=O)N1CCC[C@H](N1)C(=O)OCC(C)(C)C2 (atropisomer, axis not shown)    1 to 10 µM
12) CCn1c(-c2cccnc2[C@H](C)OC)c2c3cc(ccc31)-c1cc(cc(C(F)F)c1)C[C@H](NC(=O)[C@H](C1CCCC1)N(C)C(=O)[C@H]1CCN(C(=O)C#CC(C)(C)N3CCC3)C1)C(=O)N1CCC[C@H](N1)C(=O)OCC(C)(C)C2 (atropisomer, axis not shown)    1 to 10 µM
13) CCn1c(-c2cccnc2[C@H](C)OC)c2c3cc(ccc31)-c1cc(O)cc(c1)C[C@H](NC(=O)[C@H](C(C)C)N(C)C(=O)c1ncc(NC(=O)/C=C/CN(C)C)s1)C(=O)N1CCC[C@H](N1)C(=O)OCC(C)(C)C2 (atropisomer, axis not shown)    < 0.01 µM
14) C=CC(=O)N1CC[C@H](C(=O)N(C)[C@H](C(=O)N[C@H]2Cc3cc(O)cc(c3)-c3ccc4c(c3)c(c(-c3ccccc3CCOC)n4CC)C[C@H](C)COC(=O)[C@@H]3CCCN(N3)C2=O)C(C)C)C1    > 10 µM
15) CCn1c(-c2cccnc2[C@H](C)OC)c2c3cc(ccc31)-c1csc(n1)C[C@H](NC(=O)[C@H](C(C)C)N(C)C(=O)N1CCN(C(=O)C#CC(C)(C)N(C)C)CC1)C(=O)N1CCC[C@H](N1)C(=O)OCC(C)(C)C2 (atropisomer, axis not shown)    0.01 to 0.1 µM
